Target: beta-catenin (Homo sapiens)
Construct: made in house; host or cells: E. coli BL21 (DE3) pLysS
Sequence (P35222 134-665): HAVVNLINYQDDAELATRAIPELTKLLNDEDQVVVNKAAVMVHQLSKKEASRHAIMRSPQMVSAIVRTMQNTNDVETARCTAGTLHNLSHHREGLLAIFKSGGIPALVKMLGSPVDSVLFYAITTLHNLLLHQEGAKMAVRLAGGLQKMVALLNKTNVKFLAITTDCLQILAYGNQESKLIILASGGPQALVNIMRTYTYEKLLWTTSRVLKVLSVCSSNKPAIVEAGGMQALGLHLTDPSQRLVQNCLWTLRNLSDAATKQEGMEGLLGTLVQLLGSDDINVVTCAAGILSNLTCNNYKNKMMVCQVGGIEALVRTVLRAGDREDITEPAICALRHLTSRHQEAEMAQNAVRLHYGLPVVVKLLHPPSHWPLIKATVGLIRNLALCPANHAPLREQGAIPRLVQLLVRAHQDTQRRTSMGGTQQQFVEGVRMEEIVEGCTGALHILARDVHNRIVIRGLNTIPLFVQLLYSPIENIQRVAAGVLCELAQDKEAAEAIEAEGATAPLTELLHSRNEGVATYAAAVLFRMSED
Assay: Phage Library Screening with NGS, beta-catenin
Format: binding
Conditions: beta-catenin target concentration 30; no competitor
Ends that are not written are not given here.
parameter_measured: Target Concentration 30 (phage screen NGS readout)

1: DPAVLECHIAAWECNHT
2: DPADYDCILAAHICTNI
Task: // select label with min value of measured Target Concentration 30 (phage screen NGS readout) from [ 1 , 2 ] Record your answer as the label of the chosen record.
Result: 1

A: DPADYECVIAAQVCQHF (not fully specified; cysteine pairing not given here)
B: DPAELACEWAAIHCELV
Task: Returns the identifier with the smallest measured Target Concentration 30 (phage screen NGS readout) among A and B . Answer by quoting the chosen item's label.
Result: A

* * *

Molecular target: RNF31 UBA domain (Homo sapiens)
Construct: RNF31 UBA domain protein (residues 480-639) with N-terminal Thioredoxin-TEV-6×his-yBBr-3C tags; Thioredoxin (N, cleaved yes); made in house; host or cells: E. coli BL21 (DE3) pLysS
Sequence (Q96EP0 480-639): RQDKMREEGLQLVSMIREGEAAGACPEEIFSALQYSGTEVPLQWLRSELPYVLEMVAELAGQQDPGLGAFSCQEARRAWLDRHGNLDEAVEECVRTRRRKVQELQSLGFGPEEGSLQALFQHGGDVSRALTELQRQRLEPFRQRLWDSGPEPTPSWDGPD
Experiment: Phage Library Screening with NGS, RNF31 UBA domain
Format: binding
Details: Target Concentration 100; no competitor
parameter_measured: phage screen NGS read-out at Target Concentration 100

1: DPATQHCLAAAMWCHLI
2: DPADYICYLAANNCLYH
Task: Form: Entry with minimum phage screen NGS read-out at Target Concentration 100 (choose one): 1 / 2 Select an item and report its label.
Result: 1

I: DPAFSECVYAAFSCSWI
II: DPAFSQCVYAAVVCEVQ
III: DPAQQHCSAAAAWCVVL
Task: Hey, can you sort those sequences up there by phage screen NGS read-out at Target Concentration 100, smallest first? Sort and list the labels as requested.
Result: III, I, II
(III: 1, I: 3, II: 11)

A: DPAYEHCVAAAYWCYLL
B: DPAAYLCDMAAHNCLYL
C: DPAMYICEMAAANCLYQ
Task: Reorder: phage screen NGS read-out at Target Concentration 100, max to min. State the ranking by listing the labels in the requested order.
Result: A, C, B
(A: 11, C: 1, B: 0)

I: DPAFSQCIYAAFQCDMQ
II: DPARWVCELAAQNCLYR
III: DPAFSQCVYAAWHCESL
Task: Give the ascending ranking of the items by reported phage screen NGS read-out at Target Concentration 100. Use the labels to give the ranking in the order requested.
Result: I, II, III
(I: 0, II: 1, III: 2)

* * *

Molecular target: beta-catenin (Homo sapiens, UniProt P35222)
Construct: made in house; host or cells: E. coli BL21 (DE3) pLysS
Sequence (P35222 134-665): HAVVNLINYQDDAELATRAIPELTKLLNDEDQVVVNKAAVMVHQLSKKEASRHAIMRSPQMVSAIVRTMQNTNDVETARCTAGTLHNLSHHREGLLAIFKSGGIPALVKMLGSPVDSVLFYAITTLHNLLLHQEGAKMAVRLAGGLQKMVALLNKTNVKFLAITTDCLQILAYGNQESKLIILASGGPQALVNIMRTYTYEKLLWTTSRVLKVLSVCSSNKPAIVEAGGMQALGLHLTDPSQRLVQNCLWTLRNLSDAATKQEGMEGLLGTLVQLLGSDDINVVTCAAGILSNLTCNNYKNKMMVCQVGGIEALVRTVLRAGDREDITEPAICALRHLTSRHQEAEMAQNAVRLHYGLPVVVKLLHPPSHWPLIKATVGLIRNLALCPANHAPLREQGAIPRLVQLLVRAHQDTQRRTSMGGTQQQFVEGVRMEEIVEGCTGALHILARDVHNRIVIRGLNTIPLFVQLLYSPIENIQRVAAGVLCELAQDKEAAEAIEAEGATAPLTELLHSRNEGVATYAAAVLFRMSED
Experiment: Phage Library Screening with NGS, beta-catenin
Format: binding
Conditions: beta-catenin target concentration 30; no competitor
parameter_measured: Target Concentration 30 (phage screen NGS readout)

[[record]]
sequence = "DPAQWACEHAALLCSMD"
value_observed = 35


A: DPAIMACYQAAFWCQYN
B: DPAWQNCTWAAFHCELL
C: DPADEDCILAAHVCRHF
D: DPAILECHVAALDCQMW
E: DPAEVECMLAAHVCRAF
Task: I would appreciate it if you could sort these 5 sequences by Target Concentration 30 (phage screen NGS readout), starting from the smallest number. Thanks in advance for listing the labels in the requested order.
Result: A, D, C, B, E

I: DPAVVECYEAAYTCQYI
II: DPAEWYCEHAALVCTNH
Task: Field: lower Target Concentration 30 (phage screen NGS readout) | Options: I / II Let me know the label of the one you choose.
Result: I

* * *

Target: MDM2 (Homo sapiens, UniProt Q00987)
Construct: made in house
Sequence (Q00987 25-109): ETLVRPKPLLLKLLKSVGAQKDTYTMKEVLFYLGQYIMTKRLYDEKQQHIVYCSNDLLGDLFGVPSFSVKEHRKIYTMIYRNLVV
Test: Naive Library Presenter Screening (phage, NGS), MDM2
Type: binding
Details: MDM2 target concentration 10 nM
Numbered stars: 1 amine (or outer) side, 2 acyl side, 3 side chain; on linkers, the order of the positions; unused ones are H or OH. Bridge positions count the residues as written; N and C are the ends. Ends that are not written are not given here. Phenylene(1,4-NHCOCH2)2 = O=C(C[*:1])Nc1ccc(NC(=O)C[*:2])cc1
parameter_measured: interaction data at Target Concentration 10

[[record]]
sequence = "DPADNRCFQAAWDCAFW (linker 7-14 via Phenylene(1,4-NHCOCH2)2 (inferred))"
assay_system = "MDM2 (Homo sapiens, UniProt Q00987)"
value_observed = 1


a: DPATQQCFQAAWDCQFM (linker 7-14 via Phenylene(1,4-NHCOCH2)2 (inferred))
b: DPAENECFTAAWDCMFF (linker 7-14 via Phenylene(1,4-NHCOCH2)2 (inferred))
c: DPAFDSCFSAAWDCMYW (linker 7-14 via Phenylene(1,4-NHCOCH2)2 (inferred))
Task: Would you mind ranking these sequences by ascending interaction data at Target Concentration 10? When ranking, write the labels in the order the request describes.
Result: b, a, c
(b: 0, a: 1, c: 3)

* * *

Target: RNF31 PUB domain (Homo sapiens, UniProt Q96EP0)
Construct: MBP-TEV (N, cleaved yes); made in house; host or cells: E. coli BL21 (DE3) pLysS
Sequence (Q96EP0 1-179): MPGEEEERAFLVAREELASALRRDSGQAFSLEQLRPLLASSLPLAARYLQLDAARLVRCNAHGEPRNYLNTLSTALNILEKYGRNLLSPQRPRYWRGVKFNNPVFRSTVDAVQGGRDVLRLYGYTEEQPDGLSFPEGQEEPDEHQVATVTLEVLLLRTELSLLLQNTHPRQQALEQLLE
Assay: Phage Library Screening with NGS, RNF31 PUB domain
Assay type: binding
Settings: clusters C41-C45; BLANK screen, column 4 of 5
parameter_measured: Phage library screen NGS readout, BLANK

[[record]]
sequence = "DPAWQECVIAALVCDTY"
parameter_measured = "Phage library screen NGS readout, BLANK"
value_observed = 4

[[record]]
sequence = "DPAMEWCWDAAVFCTYS"
parameter_measured = "Phage library screen NGS readout, BLANK"
value_observed = 1

[[record]]
sequence = "DPAWDYCMYAAYDCNHS"
parameter_measured = "Phage library screen NGS readout, BLANK"
value_observed = 0


a: DPAFTDCQLAAAVCMTY
b: DPAYSSCSWAAIYCNWT
Task: Identify the entry with the larger Phage library screen NGS readout, BLANK. Options: a and b To answer, give the label that identifies your chosen option.
Result: b
(b: 2, a: 0)

A: DPAAEDCHIAAMVCMTY
B: DPAYTLCSWAAMYCDSM
C: DPAQDWCMYAAYECDAH
Task: Arrange by Phage library screen NGS readout, BLANK, high to low. The reply should contain the labels ordered as requested.
Result: B, C, A

Values from patent US20240376151A1
